Reference source for all entries: patent US20250179103A1

Target: Recombinant STAT3 protein (STAT3(G127-I722)) (Homo sapiens, UniProt P40763)
Construct: Recombinant STAT3 protein (STAT3(G127-I722))
Sequence (P40763 127-722): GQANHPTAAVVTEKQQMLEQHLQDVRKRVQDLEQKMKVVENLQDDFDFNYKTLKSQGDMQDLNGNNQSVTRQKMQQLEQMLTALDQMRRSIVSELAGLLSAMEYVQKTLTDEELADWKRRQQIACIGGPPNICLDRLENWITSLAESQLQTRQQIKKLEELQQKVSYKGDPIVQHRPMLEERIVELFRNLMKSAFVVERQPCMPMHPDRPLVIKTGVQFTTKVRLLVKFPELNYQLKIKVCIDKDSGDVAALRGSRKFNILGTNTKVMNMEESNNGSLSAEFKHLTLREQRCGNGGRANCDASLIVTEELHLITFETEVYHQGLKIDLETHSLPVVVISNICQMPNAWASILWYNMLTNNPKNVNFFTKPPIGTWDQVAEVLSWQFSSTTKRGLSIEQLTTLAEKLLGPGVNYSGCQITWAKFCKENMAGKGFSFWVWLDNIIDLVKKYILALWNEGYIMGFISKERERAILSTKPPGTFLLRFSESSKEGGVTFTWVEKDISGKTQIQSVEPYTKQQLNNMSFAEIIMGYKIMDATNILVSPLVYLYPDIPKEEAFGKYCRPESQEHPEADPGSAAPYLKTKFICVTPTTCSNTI
Test: STAT3 Fluorescence Polarization (FP) Assay
Settings: STAT3(G127-I722) 25 nM, probe 5-FAM-GpYLPQTV-NH2 2 nM, 45-minute incubation
pIC50: −log10 of the molar value.
Overview of recorded pIC50 for various molecules

Example results:
CCC(C)(C)c1ccc(N(C)C(=O)[C@@H]2CC[C@@H]3CCN(C(C)=O)C[C@H](NC(=O)c4cc5cc(C(F)(F)P(=O)(O)O)ccc5s4)C(=O)N32)cc1 [Compound 159] :: 5.00 to 6.00
Cc1ccc2onc(C(=O)N3CC[C@H]4CC[C@@H](C(=O)N5C[C@@H](C#N)[C@H](c6ccccc6)C5)N4C(=O)[C@@H](NC(=O)c4ccc5ccc(C(F)(F)P(=O)(O)O)cc5c4)C3)c2c1 (single isomer, unassigned) [Compound 375] :: 5.00 to 6.00
Cc1ccc2onc(C(=O)N3CC[C@H]4CC[C@@H](C(=O)N5C(=O)N(c6cccnc6)C(=O)C56CC6)N4C(=O)[C@@H](NC(=O)c4ccc5ccc([C@H](F)P(=O)(O)O)cc5c4)C3)c2c1 [Compound 386] :: < 5.00
Cc1ccc2[nH]nc(C(=O)N3CC[C@H](NC(=O)c4ccc5ccc(C(F)(F)P(=O)(O)O)cc5c4)C(=O)N4[C@H](CC[C@H]4C(=O)N4C[C@H](c5ccccc5)[C@@H](C#N)C4)C3)c2c1 (relative stereo) [Compound 233] :: 5.00 to 6.00

Proceeding to the next molecule to report its pIC50.
Report pIC50, nothing else, for this molecule: CCC(=O)NCCCN(C)C(=O)[C@@H]1CC[C@@H]2CCN(C(C)=O)C[C@H](NC(=O)c3cc4cc(C(F)(F)P(=O)(O)O)ccc4[nH]3)C(=O)N21 [Compound 28] 5.00 to 6.00

---

Target: Recombinant STAT6 protein (STAT6(W123-T658)) (Homo sapiens)
Construct: Recombinant STAT6 protein (STAT6(W123-T658))
Sequence (P42226 123-658): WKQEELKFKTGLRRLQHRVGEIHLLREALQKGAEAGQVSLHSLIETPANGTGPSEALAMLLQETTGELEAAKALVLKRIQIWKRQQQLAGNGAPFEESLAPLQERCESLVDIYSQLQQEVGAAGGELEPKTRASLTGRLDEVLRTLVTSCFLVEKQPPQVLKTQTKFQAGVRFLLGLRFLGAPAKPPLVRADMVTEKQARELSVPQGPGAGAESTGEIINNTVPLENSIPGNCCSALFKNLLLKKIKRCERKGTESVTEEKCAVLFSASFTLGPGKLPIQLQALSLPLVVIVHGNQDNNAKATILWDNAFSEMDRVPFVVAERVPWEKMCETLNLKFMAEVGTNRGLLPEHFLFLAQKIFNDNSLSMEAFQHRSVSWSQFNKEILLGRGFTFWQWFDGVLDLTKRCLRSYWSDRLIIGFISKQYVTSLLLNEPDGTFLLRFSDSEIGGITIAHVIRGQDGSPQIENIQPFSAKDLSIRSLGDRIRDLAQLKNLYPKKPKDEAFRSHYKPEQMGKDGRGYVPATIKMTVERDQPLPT
Test: STAT6 Fluorescence Polarization (FP) Assay
Type: binding
Settings: STAT6(W123-T658) 250 nM, probe 5-FAM-ApYKPFQDLI-NH2 2 nM, 45-minute incubation
Overview of recorded IC50 for various compounds

Example results:
CC(=O)N1CC[C@H]2CC[C@@H](C(=O)N(C)CCC#N)N2C(=O)[C@@H](NC(=O)c2cc3cc(C(F)(F)P(=O)(O)O)ccc3s2)C1 :: 0.3 to 3 µM
COc1cccc([C@@H]2CN(C(=O)[C@@H]3CC[C@@H]4CCN(C(C)=O)C[C@H](NC(=O)c5cc6cc(C(F)(F)P(=O)(O)O)ccc6s5)C(=O)N43)C[C@H]2C#N)c1 (relative stereo) :: ≤ 0.3 µM

Proceeding to the next compound to report its IC50.
Report IC50, nothing else, for this compound: `CCC(=O)NCCCN(C)C(=O)[C@@H]1CC[C@@H]2CCN(C(C)=O)C[C@H](NC(=O)c3cc4cc(C(=O)P(=O)(O)O)ccc4[nH]3)C(=O)N21` 3 to 30 µM

---

Overview of recorded IC50 for various molecules
Target: Recombinant STAT3 protein (STAT3(G127-I722)) (Homo sapiens)
Construct: Recombinant STAT3 protein (STAT3(G127-I722))
Test: STAT3 Fluorescence Polarization (FP) Assay
Details: STAT3(G127-I722) 25 nM, probe 5-FAM-GpYLPQTV-NH2 2 nM, 45-minute incubation

Report IC50, nothing else, for this molecule: CCN1CC[C@H]2CC[C@@H](C(=O)N3C[C@@H](C#N)[C@H](c4ccccc4)C3)N2C(=O)[C@@H](NC(=O)c2ccc3ccc(C(F)(F)P(=O)(O)O)cc3c2)C1 (single isomer, unassigned) 1 to 10 µM

Report IC50, nothing else, for this molecule: `C[C@@H](Cc1ccccc1)C(=O)N1CC[C@H]2CC[C@@H](C(=O)N3CCCC3)N2C(=O)[C@@H](NC(=O)c2cc3cc(C(F)(F)P(=O)(O)O)ccc3s2)C1` 1 to 10 µM

Report IC50, nothing else, for this molecule: CC(=O)N1CC[C@H]2CC[C@@H](C(=O)N3CC(c4ccc(=O)[nH]c4)[C@@H](C#N)C3)N2C(=O)[C@@H](NC(=O)c2cc3cc(C(F)(F)P(=O)(O)O)ccc3s2)C1 (relative stereo) 0.1 to 1 µM

Report IC50, nothing else, for this molecule: `CCN1CC[C@H]2CC[C@@H](C(=O)N3CC(C(=O)N4CCOCC4)C3)N2C(=O)[C@@H](NC(=O)c2cc3cc(C(F)(F)P(=O)(O)O)ccc3s2)C1` 0.1 to 1 µM

Report IC50, nothing else, for this molecule: `CC(=O)N1CC[C@H]2CC[C@@H](C(=O)Nc3ccc(-c4ccccc4)c([N+](=O)[O-])c3)N2C(=O)[C@@H](NC(=O)c2cc3cc(C(F)(F)P(=O)(O)O)ccc3s2)C1` 0.1 to 1 µM

---

Target: Recombinant STAT6 protein (STAT6(W123-T658)) (Homo sapiens)
Construct: Recombinant STAT6 protein (STAT6(W123-T658))
Assay: STAT6 Fluorescence Polarization (FP) Assay
Conditions: STAT6(W123-T658) 250 nM, probe 5-FAM-ApYKPFQDLI-NH2 2 nM, 45-minute incubation
Test readout: IC50

CC(=O)N1CC[C@H]2CC[C@@H](C(=O)N3CCC(OCc4cncs4)C3)N2C(=O)[C@@H](NC(=O)c2cc3cc(C(F)(F)P(=O)(O)O)ccc3s2)C1 (some centres unmarked) [Compound 82] :: 300 to 3000 nM
Cc1ccc2onc(C(=O)N3CC[C@H]4CC[C@@H](C(=O)N5C[C@H](c6ccn(C)c(=O)c6)CC56CC6)N4C(=O)[C@@H](NC(=O)c4ccc5ccc([C@@H](F)P(=O)(O)O)cc5c4)C3)c2c1 [Compound 391] :: ≤ 300 nM
CC(=O)N1CC[C@H]2CC[C@@H](C(=O)N3CC(c4cccnc4)C3)N2C(=O)[C@@H](NC(=O)c2cc3cc(C(F)(F)P(=O)(O)O)ccc3s2)C1 [Compound 122] :: 300 to 3000 nM
Cc1ccc2onc(C(=O)N3CC[C@H]4CC[C@@H](C(=O)N5C[C@H](c6ccn(C)c(=O)c6)CC56CC6)N4C(=O)[C@@H](NC(=O)c4ccc5ccc([C@H](F)P(=O)(O)O)cc5c4)C3)c2c1 [Compound 390] :: ≤ 300 nM

Proceeding to the next molecule to report its IC50.
Report IC50, nothing else, for this molecule: CC(=O)N1CC[C@H]2CC[C@@H](C(=O)N(C)c3cccc(C(F)F)c3)N2C(=O)[C@@H](NC(=O)c2cc3cc(C(F)(F)P(=O)(O)O)ccc3s2)C1 [Compound 201] 300 to 3000 nM

---

Overview of recorded IC50 for various molecules
System: pY641-STAT6 in Peripheral Blood Mononuclear Cells (PBMC)
Assay: MSD-pSTAT-PBMC Assay (pSTAT6, IL-4 stimulated)
Format: cell-based, Human
Conditions: Homo sapiens, compound 3 hrs, then 1 ng/mL IL-4 for 10 min

Report IC50, nothing else, for this molecule: `CC(=O)N1CC[C@H]2CC[C@@H](C(=O)Nc3ccc(-c4ccccc4)cc3)N2C(=O)[C@@H](NC(=O)/C=C/c2ccc(C(F)(F)P(=O)(OCCSC(=O)CC(C)C)OCCSC(=O)CC(C)C)cc2)C1` > 3000 nM

Report IC50, nothing else, for this molecule: `CCOP(=O)(OCC)C(F)(F)c1ccc2sc(C(=O)N[C@H]3CN(C(C)=O)CC[C@H]4CC[C@@H](C(=O)N(C)c5ccccc5)N4C3=O)cc2c1` > 3000 nM

Report IC50, nothing else, for this molecule: `CC(=O)N1CC[C@H]2CC[C@@H](C(=O)N(C)c3ccc(N4CCOCC4)cc3)N2C(=O)[C@@H](NC(=O)c2cc3cc(C(F)(F)P(=O)(OCOC(=O)C(C)(C)C)OCOC(=O)C(C)(C)C)ccc3s2)C1` 100 to 1000 nM

Report IC50, nothing else, for this molecule: CCCOC(=O)[C@H](C)NP(=O)(Oc1ccccc1)C(F)c1ccc2ccc(C(=O)N[C@H]3CN(C(=O)c4cc5ncccn5n4)CC[C@H]4CC[C@@H](C(=O)N5CCOCC5)N4C3=O)cc2c1 (some centres unmarked) > 3000 nM

Report IC50, nothing else, for this molecule: `CCCC(=O)SCCOP(=O)(OCCSC(=O)CCC)C(F)(F)c1ccc2sc(C(=O)N[C@H]3CN(C(C)=O)CC[C@H]4CC[C@@H](C(=O)N(C)c5ccccc5)N4C3=O)cc2c1` 100 to 1000 nM
